test-system: MAO-B enzyme (Homo sapiens (Human), UniProt P27338)
Sequence (P27338 whole entry): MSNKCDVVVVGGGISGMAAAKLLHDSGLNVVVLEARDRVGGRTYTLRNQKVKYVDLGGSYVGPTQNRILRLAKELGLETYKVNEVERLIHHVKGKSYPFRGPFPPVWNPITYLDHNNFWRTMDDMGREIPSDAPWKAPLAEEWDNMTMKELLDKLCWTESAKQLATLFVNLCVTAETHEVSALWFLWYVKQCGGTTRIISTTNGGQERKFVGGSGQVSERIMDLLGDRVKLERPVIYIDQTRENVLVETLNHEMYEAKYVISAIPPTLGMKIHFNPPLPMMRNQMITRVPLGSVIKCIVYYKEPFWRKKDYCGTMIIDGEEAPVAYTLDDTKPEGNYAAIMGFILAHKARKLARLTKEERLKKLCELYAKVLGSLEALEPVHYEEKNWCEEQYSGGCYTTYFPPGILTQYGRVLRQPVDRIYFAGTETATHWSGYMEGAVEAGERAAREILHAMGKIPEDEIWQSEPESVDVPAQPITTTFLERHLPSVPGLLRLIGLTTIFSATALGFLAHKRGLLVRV
Where a name gives a salt, the structure may show the parent alone.
quantity-kind: IC50

{"columns": ["molecule", "IC50"],
 "data": [
  ["COc1cc(Cl)ccc1CN[C@@H]1C[C@H]1c1ccc(C(=O)NCc2ccccc2)cc1 (relative stereo) [Example 41, trifluoroacetate]", "> 10 µM"],
  ["CN(C(=O)c1cccc([C@@H]2C[C@H]2NCC2CC2)c1)c1ccccc1 (relative stereo) [Example 80, hydrochloride]", "> 10 µM"],
  ["O=C(NC1CC(F)(F)C1)c1ccc(F)c([C@@H]2C[C@H]2NCC2CC2)c1 (relative stereo) [Example 240, hydrochloride]", "> 10 µM"],
  ["Cc1csc(CN[C@@H]2C[C@H]2c2ccc(C(=O)NCc3ccccc3)cc2)c1 (relative stereo) [Example 49, trifluoroacetate]", "> 10 µM"],
  ["CN1CCC(N[C@@H]2C[C@H]2c2cccc(C(=O)Nc3cnn(CC4CC4)c3)c2)CC1 (relative stereo) [Example 202, trihydrochloride]", "> 10 µM"]
]}

Please look at the following molecule next.
Please list IC50 recorded for the molecule O=C(Nc1cccc(C(F)(F)F)c1)c1ccc([C@@H]2C[C@H]2NC2CCS(=O)(=O)CC2)cc1 (relative stereo) [Example 62, hydrochloride] 4.8 µM

----------
The listing below reports IC50 for compounds tested on MAO-A enzyme (Homo sapiens (Human)).
Sequence (P21397 whole entry): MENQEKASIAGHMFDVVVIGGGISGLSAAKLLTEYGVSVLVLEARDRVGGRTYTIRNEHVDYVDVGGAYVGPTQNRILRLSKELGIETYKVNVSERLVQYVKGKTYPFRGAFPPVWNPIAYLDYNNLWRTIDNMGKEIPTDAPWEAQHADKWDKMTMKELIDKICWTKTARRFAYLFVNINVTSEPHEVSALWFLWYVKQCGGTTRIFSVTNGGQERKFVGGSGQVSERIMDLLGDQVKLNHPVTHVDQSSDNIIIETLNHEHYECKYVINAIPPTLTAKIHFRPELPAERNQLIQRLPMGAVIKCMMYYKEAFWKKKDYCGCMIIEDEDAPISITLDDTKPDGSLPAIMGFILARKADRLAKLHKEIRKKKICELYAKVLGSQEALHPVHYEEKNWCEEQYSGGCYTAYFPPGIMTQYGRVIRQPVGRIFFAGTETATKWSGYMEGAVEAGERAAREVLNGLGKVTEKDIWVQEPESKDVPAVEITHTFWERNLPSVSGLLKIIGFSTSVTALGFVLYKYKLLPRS
Structures can show the parent of a compound that is named as a salt.

Some entries whose results are on file:
{"columns": ["compound", "IC50"],
 "data": [
  ["O=C(Nc1ccc(-c2ncccn2)cc1)c1ccc([C@@H]2C[C@H]2NCC2CC2)cc1 (relative stereo) [Example 52, dihydrochloride]", "> 10 µM"],
  ["O=C(Nc1cccc(F)c1)c1cccc([C@@H]2C[C@H]2NCC2CC2)c1 (relative stereo) [Example 122, trifluoroacetate]", "> 10 µM"],
  ["Cc1ncc(NC(=O)c2cccc([C@@H]3C[C@H]3NCC3CC3)c2)s1 (relative stereo) [Example 79, dihydrochloride]", "> 10 µM"],
  ["O=C(Nc1ccc(-c2cn3c(n2)SCC3)cc1)c1cccc([C@@H]2C[C@H]2NCC2CC2)c1 (relative stereo) [Example 127, bis(trifluoroacetate)]", "> 10 µM"]
]}

Batch lookup, IC50 per entry.
1. COc1ccc(CN[C@@H]2C[C@H]2c2ccc(C(=O)NCc3ccccc3)cc2)cc1 (relative stereo) [Example 35, trifluoroacetate]
2. CC(=O)N1CCC(N[C@@H]2C[C@H]2c2cccc(C(=O)Nc3cnn(Cc4ccc(F)cc4)c3)c2)CC1 (relative stereo) [Example 218, dihydrochloride]

1: 3.1 µM; 2: > 10 µM

----------
test-system: MAO-B enzyme (Homo sapiens (Human));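 note: luminescence read-out, compound preincubated 10 min with enzyme then reacted 60 min at room temperature, inhibition relative to enzyme reaction without compound, blank lacking enzyme and compound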
pIC50: −log10 of the molar value. Where a name gives a salt, the structure may show the parent alone.
I'd appreciate it if you could supply pIC50 values for the items below.

{"columns": ["compound", "test-system", "result"],
 "data": [
  ["Cc1ccc(CN[C@@H]2C[C@H]2c2ccc(C(=O)NCc3ccccc3)cc2)s1 (relative stereo) [Example 48, trifluoroacetate]", "MAO-B enzyme (Homo sapiens (Human))", "< 5.00"]
]}

# map each compound to its pIC50
1. Cc1ncc(NC(=O)c2cccc([C@@H]3C[C@H]3NC3CCC3)c2)s1 (relative stereo) [Example 210, dihydrochloride]
2. O=C(NCc1ccccc1)c1cccc([C@@H]2C[C@H]2NCC2CC2)c1 (relative stereo) [Example 14, hydrochloride]

1. < 5.00
2. < 5.00

Record pIC50 for all entries; do not skip any.
1. Cc1ncc(NC(=O)c2cccc([C@@H]3C[C@H]3NC3CCOCC3)c2)s1 (relative stereo) [Example 212, dihydrochloride]
2. O=C(NCc1ccccc1)c1ccc([C@@H]2C[C@H]2NCc2ccc(-c3cnccn3)cc2)cc1 (relative stereo) [Example 45, bis(trifluoroacetate)]

1. < 5.00
2. < 5.00

Tell me its pIC50 given N[C@@H]1C[C@H]1c1ccc(C(=O)NC2CCCCC2)cc1 (relative stereo) [Example 6, hydrochloride] as the entry. 5.38
